Provide the reported inhibition at 20 min, 2 µM of each item.
Molecular target: ABCB1 (Homo sapiens)
Construct: expressed in transfected cells; host or cells: L5178Y mouse T-cell lymphoma cells transfected with pHa MDR1/A retrovirus, selected with colchicine (L5178YMDR)
Assay: ABCB1 inhibition assay (rhodamine 123 accumulation, flow cytometry)
Type: cell-based
Conditions: human, probe rhodamine 123 (5.2 µM); 2 µM, L5178YMDR, rhodamine 123 accumulation, n = 1
Description: ABCB1 inhibition was determined by the intracellular accumulation of rhodamin 123 as reported before. Briefly, 2 × 10^6 cells/mL of L5178Y and L5178YMDR cell lines were re-suspended in serum-free McCoy’s 5A medium and distributed in 0.5 mL aliquots into Eppendorf centrifuge tubes. […] Fluorescence of the cell population was measured with a PartecCyFlow® flow cytometer (Partec, Münster, Germany). Mean fluorescence intensity percentage was calculated for the treated vs. untreated L5178YMDR cells. […]
One number for each entry, in %.

Completed entries (count: 2):
INSERT INTO measurements (compound, result_value) VALUES
  ('CC(=O)[C@H]1CC[C@@]2(O)C3=CC(=O)[C@@H]4C[C@H]5OC(C)(C)O[C@H]5C[C@]4(C)C3=CC[C@]12C [Compound 5]', 0.2),
  ('CC(=O)[C@H]1CC=C2C3=CC(=O)[C@@H]4C[C@H]5OC(C)(C)O[C@H]5C[C@]4(C)[C@H]3CC[C@@]21C [Compound 10]', -0.38);

I need inhibition at 20 min, 2 µM for every entry listed below, if you could help.
1. CC(=O)[C@H]1CC[C@@]2(F)C3=CC(=O)[C@@H]4C[C@H]5OC(C)(C)O[C@H]5C[C@]4(C)[C@H]3CC[C@]12C [Compound 11]
2. CC(=O)O[C@H]1C[C@]2(C)C3=CC[C@@]4(C)C(=CC[C@@H]4[C@@]4(C)OC(C)(C)O[C@@H]4CCC(C)(C)O)C3=C(O)C(=O)[C@@]23C[C@@H]13 [Compound 17]
3. CC(=O)N[C@H]1CC[C@@]2(F)C3=CC(=O)[C@@H]4C[C@H]5OC(C)(C)O[C@H]5C[C@]4(C)[C@H]3CC[C@]12C [Compound 14]
4. CC(=O)[C@H]1CC[C@@]2(O)C3=CC(=O)[C@@H]4C[C@H]5OC(C)(C)O[C@H]5C[C@]4(C)[C@H]3[C@H](O)C[C@]12C [Compound 3]
5. CC(=O)O[C@H]1C[C@@]2(C)C(=C(O)C(=O)C3=C2CC[C@@]2(C)C3=CC[C@@H]2[C@@]2(C)OC(C)(C)O[C@@H]2CCC(C)(C)O)C[C@H]1O [Compound 16, calonysterone 2-acetate 20,22-acetonide]
6. CC(=O)[C@H]1CC=C2C3=CC(=O)[C@@H]4C[C@H]5OC(C)(C)O[C@H]5C[C@]4(C)C3=CC[C@@]21C [Compound 6]
7. CC(=O)[C@H]1CC[C@@]2(F)C3=CC(=O)[C@@H]4C[C@H]5OC(C)(C)O[C@H]5C[C@]4(C)C3=CC[C@]12C [Compound 7]

[-0.57, 1.08, 0.2, -0.03, 0.71, -0.38, -0.24]

I need inhibition at 20 min, 2 µM for every entry listed below, if you could help.
1. CC(=O)N[C@H]1CC=C2C3=CC(=O)[C@@H]4C[C@H]5OC(C)(C)O[C@H]5C[C@]4(C)[C@H]3CC[C@@]21C [Compound 13]
2. CC(=O)[C@H]1CC[C@@]2(O)C3=CC(=O)[C@@H]4C[C@H]5OC(C)(C)O[C@H]5C[C@]4(C)[C@H]3CC[C@]12C [Compound 9, poststerone 2,3-acetonide]

1. 0.09
2. -0.4

Data credit: paper PMC8998355
